All values here come from paper PMC10384862.

Assay: SPECT/CT imaging with 203Pb-labeled ligands
Type: in vivo
Conditions: male, Balb/c nu/nu, mouse, tumor, iv, 0.5 nmol, total radioactivity; 1, 4 and 24 h after administration; n = 4; read-out: Tumor uptake from SPECT images
MEASURED_ENDPOINT: tissue uptake per volume

INSERT INTO measurements (compound, observed_result) VALUES
  ('C[C@@H](O)[C@H](NC(=O)[C@@H]1CSSC[C@H](NC(=O)[C@@H](Cc2ccccc2)NC(=O)[C@H]2CC[C@H](CNC(=O)CN3CCN(CC(N)=O)CCN(CC(N)=O)CCN(CC(N)=O)CC3)CC2)C(=O)N[C@@H](Cc2ccc(O)cc2)C(=O)N[C@H](Cc2c[nH]c3ccccc23)C(=O)N[C@@H](CCCCN)C(=O)N[C@@H]([C@@H](C)O)C(=O)N1)C(=O)O [[^203Pb]Pb-eSOMA-01, metal not drawn]', '3 to 4 %ID/mL');

Read the next record carefully.
Fill in tissue uptake per volume for record C[C@@H](O)[C@H](NC(=O)[C@@H]1CSSC[C@H](NC(=O)[C@@H](Cc2ccccc2)NC(=O)CN2CCC(NC(=O)CN3CCN(CC(N)=O)CCN(CC(N)=O)CCN(CC(N)=O)CC3)CC2)C(=O)N[C@@H](Cc2ccc(O)cc2)C(=O)N[C@H](Cc2c[nH]c3ccccc23)C(=O)N[C@@H](CCCCN)C(=O)N[C@@H]([C@@H](C)O)C(=O)N1)C(=O)O [[^203Pb]Pb-eSOMA-02, metal not drawn]
3 to 4 %ID/mL
